# Tested on: human vascular smooth muscle cells
# assay text: Inhibitory activity against adhesion of human vascular smooth muscle cells to vitronectin
# Type: cell-based
# condition summary: immobilized human vitronectin

{"smiles repr": "O=C(NC[C@H](NS(=O)(=O)c1ccccc1)C(=O)O)c1cc(N2CCC(NC3=NCCCN3)CC2)cc(C(F)(F)F)c1", "IC50 [nM]": 96}
